System: BT-549
test_protocol: NCI tumour cell line growth inhibition, 48 h
Activity calls are given as the source filed them. Rule as the data show it: active = GI50 up to about 1.1 µM and inactive = higher.
observable: GI50

>>> print(df.to_string())
                                    compound      measured_result
 0  CN(C)C(=O)C(F)(F)C(c1ccc(C(F)(F)F)cc1)C1C(=O)N(C)C(=O)N(C)C1=O (stereo unspecified)  > 100 µM (inactive)
 1                      COc1cc(O)ccc1C(=S)SC  > 100 µM (inactive)
 2  CCOC(=O)c1nc2ccc(C(F)(F)F)cc2nc1Oc1ccc(C#N)cc1   18.8 µM (inactive)
 3  O=C1CSC(c2ccc([N+](=O)[O-])cc2)N1c1nc(-c2ccc3c(c2)CCCC3)cs1 (stereo unspecified)   94.6 µM (inactive)
 4         N#CCc1nc(-c2cc3ccc(O)cc3oc2=O)cs1   25.2 µM (inactive)
 5                  N#Cc1nc(COCc2ccccc2)oc1N   29.6 µM (inactive)
 6  COc1ccc(N2CC(=O)N(C(=O)COc3ccc(OCC(=O)N4C(=O)CN(c5ccc(OC)cc5)C4=S)cc3)C2=S)cc1  > 100 µM (inactive)
 7  O=C1CSC2(CCN(CCCN3c4ccccc4Sc4ccc(Cl)cc43)CC2)N1   12.1 µM (inactive)
 8  N#Cc1c(C#N)c(SSc2c(C#N)c(C#N)c(N)n2-c2ccccc2)n(-c2ccccc2)c1N   5.57 µM (inactive)
 9    COC(=O)C1(Cc2ccc3c(c2)CCC3)Cc2ccccc2C1   69.5 µM (inactive)
10  CC(=O)C1=C(C)N(c2ccccc2)C2(O)C=CC(O)=C3C(=O)c4ccccc4C(=O)C312 (stereo unspecified)   13.2 µM (inactive)
11  CCCCCCCCCCCCCC(=O)N(CCCCCCCCC)CC(O)C(O)C(OC1OC(CO)C(O)C(O)C1O)C(O)CO (stereo unspecified)   22.9 µM (inactive)
12             CC[N+](CC)(CCNCC(N)=O)CC(N)=O   > 10 µM (inactive)
13  Cc1cc(C)c(S(=O)(=O)N2CCN(S(=O)(=O)c3c(C)cc(C)cc3C)OCCCCCO2)c(C)c1  > 100 µM (inactive)
14             N/C(=N\c1ccc(Cl)cc1)c1ccccc1N  > 100 µM (inactive)
15  NC1C/C(=N\O)c2c(Cl)sc(Cl)c21 (stereo unspecified)   18.5 µM (inactive)
16  CC(C)(C)OC(=O)NCC(c1c[nH]c2ccccc12)c1c[nH]c2ccccc12   18.9 µM (inactive)
17  COc1ccc2nc3c([N+](=O)[O-])ccc4c3c(c2c1)N(CCCN(C)C)C(=S)N4CCCN(C)C   11.8 µM (inactive)
18                     Cc1csc2c1-n1cccc1C2=O  > 100 µM (inactive)
19  CCCC(=O)Nc1ccc2c(c1)CN1C(=O)c3ccccc3C1=N2  > 100 µM (inactive)
20  CC(C)C(N)(C(=O)O)c1ccccc1 (stereo unspecified)  > 100 µM (inactive)
21                         S=C(S)NCCCn1ccnc1  > 100 µM (inactive)
22  COc1cc2c(cc1OCCCCOc1cc3c(cc1OC)C(=O)N1CCC[C@H]1C(=O)N3)N=C[C@@H]1CCCN1C2=O   4.44 µM (inactive)
23  CN1CCC/C1=C1/C(=O)N(c2ccccc2)N=C1c1ccc[nH]1  > 100 µM (inactive)
24  CN(C)CCN(/C(=N/c1ccccc1)N1CCCC1)c1ccccc1  > 100 µM (inactive)
25  COC(=O)CC(CNC(=O)OCc1ccccc1)OCc1ccc(OC)cc1 (stereo unspecified)     34 µM (inactive)
26  COc1ccc(N2C(=O)C3ON(C(C(N)=O)c4ccccc4)C(c4ccc(-c5ccccc5)cc4)C3C2=O)cc1 (stereo unspecified)   > 50 µM (inactive)
27           O=C(O)c1cc(CCc2cc(O)ccc2O)ccc1O  > 100 µM (inactive)
28              C/C(=N\c1cccc(Cl)c1)c1ccncc1  > 100 µM (inactive)
29  N#CC(Cc1ccccc1)N(CCC1=CCCCC1)Cc1ccccc1 (stereo unspecified)   71.9 µM (inactive)
30  CCC(C)(C)c1ccc(OCCCCNC(=O)c2ccc3ccccc3c2O)c(C(C)(C)CC)c1   30.8 µM (inactive)
31  O=C(CC(NC(=O)C(F)(F)F)C(=O)O)OCc1ccccc1 (stereo unspecified)  > 100 µM (inactive)
32  Cc1ccc(C2=Nc3c(c(C)nn3-c3ccccc3)N=C(C(=O)O)C2)cc1   > 10 µM (inactive)
33  COc1ccc(CN(CCc2c[nH]c3ccccc23)Cc2ccc(OC)cc2)cc1   5.71 µM (inactive)
34           O=C1/C(=C/c2ccccc2)CCCc2ccccc21     20 µM (inactive)
35  CC1(C)OC2CN(C(=O)OCc3ccccc3)C(CO)C2O1 (stereo unspecified)  > 100 µM (inactive)
36  COC(=O)c1ccc(-n2c(C)nc(=O)c(-c3ccccc3)c2C)cc1  > 100 µM (inactive)
37  CC(=O)c1ccc(O)c(CN(C2CCCCC2)C2CCCCC2)c1O  > 100 µM (inactive)
38  CCOP(=O)(OCC)C(C)(CC)NC1=NC(C(F)(F)F)(C(F)(F)F)NC(=O)N1 (stereo unspecified)  > 100 µM (inactive)
39        CC(C)c1nc2cc(C(F)(F)F)ccc2[nH]c1=O  > 100 µM (inactive)
40       N#C/C(C(=O)Nc1ccccc1)=C(/N)N1CCOCC1  > 100 µM (inactive)

Source of measurements: ChEMBL document CHEMBL1201862
